Test: Acute percutaneous toxicity in Mus musculus (mouse)
Assay type: organism-based
Settings: in vivo, topical or ocular
REPORTED_ENDPOINT: LD50

Query: Value lookup for LD50; key = CO/C=C(/C(=O)OC)c1ccccc1COc1cc(C(F)(F)F)nc(Nc2cccc(Cl)c2Cl)n1
Response: ≥ 2150 mg/kg

###

Catalogue of compounds with associated mortality at 1.25 µg/mL
Tested on: Tetranychus cinnabarinus
Experiment: Acaricidal activity against Tetranychus cinnabarinus (carmine spider mite) in kidney bean leaf assessed as mortality at 1.25 mg/L measured after 72 hr of spray
Type: functional
// units = %; emit number, no label

- CPD_SMILES: "CO/C=C(/C(=O)OC)c1ccccc1COc1cc(C(F)(F)F)nc(Nc2ccc(Cl)cc2Cl)n1"
  ASSAYED_TARGET: "Tetranychus cinnabarinus"
  mortality at 1.25 µg/mL (%): 90
- CPD_SMILES: "CO/C=C(/C(=O)OC)c1ccccc1COc1cc(C(F)(F)F)nc(Nc2cccc(Cl)c2Cl)n1"
  ASSAYED_TARGET: "Tetranychus cinnabarinus"
  mortality at 1.25 µg/mL (%): 75
- CPD_SMILES: "CO/C=C(/C(=O)OC)c1ccccc1COc1cc(C(F)(F)F)nc(Nc2ccc(Cl)c(C)c2Cl)n1"
  ASSAYED_TARGET: "Tetranychus cinnabarinus"
  mortality at 1.25 µg/mL (%): 79
- CPD_SMILES: "CO/C=C(/C(=O)OC)c1ccccc1COc1cc(C(F)(F)F)nc(Nc2ccc(Cl)c(Cl)c2Cl)n1"
  ASSAYED_TARGET: "Tetranychus cinnabarinus"
  mortality at 1.25 µg/mL (%): 75

Here's the next entry for you.
Query: Bench note: what mortality at 1.25 µg/mL did CO/C=C(/C(=O)OC)c1ccccc1COc1cc(C(F)(F)F)nc(OC(C)C)n1 show?
Response: 30
